FYI, the data here is from patent US10105357B2.

System: HepG2 (Hepatocellular Carcinoma)
procedureText: Cell viability analysis, hepatic cancer HepG2
Type: cell-based, human
appliedConditions: Homo sapiens, 72 h; HepG2; repeated experiment; read-out: The results of antibiotic drug inhibiting cancer cell lines (cell viability analysis), HepG2
Structures can show the parent of a compound that is named as a salt.
Recorded viability at 10 µM, one value per entry.
# number only, unit % dropped from output

Query: Requested read-out: viability at 10 µM. Entry: CCC[S+]([O-])c1ccc2[nH]c(NC(=O)OC)nc2c1 (stereo not shown) [Albendazole Oxide (Ricobendazole), Albendazole Oxide]
Response: 92.9

Query: Requested read-out: viability at 10 µM. Entry: CCC[C@H](NC(=O)[C@@H]1[C@H]2CCC[C@H]2CN1C(=O)[C@@H](NC(=O)[C@@H](NC(=O)c1cnccn1)C1CCCCC1)C(C)(C)C)C(=O)C(=O)NC1CC1 [Telaprevir (VX-950), Telaprevir]
Response: 114

Query: Requested read-out: viability at 10 µM. Entry: CN(C)C(=O)C(CCN1CCC(O)(c2ccc(Cl)cc2)CC1)(c1ccccc1)c1ccccc1 [Loperamide hydrochloride]
Response: 35.8

Query: Requested read-out: viability at 10 µM. Entry: Cc1cc(C(C)(C)C)cc(C)c1CC1=NCCN1 [Xylometazoline HCl]
Response: 106
